Target: human LFA-1 (human) (UniProt P20701)
Test: phage ELISA, solution competition: Fab-phage incubated with serially diluted LFA-1, unbound phage captured on LFA-1-coated wells; IC50 used as affinity estimate
Kindly state pIC50 for each of the entries shown.
Convention used: pIC50 is expressed as -log10 of the molar concentration.

q: Name the recorded pIC50 of the binder listed here: MHM24 library clone, CDR-L2 SGRSLQR, VH L45P (Fab, V domains shown) VH: EVQLVESGGGLVQPGGSLRLSCAASGYSFTGHWMNWVRQAPGKGPEWVGMIHPSDSETRLNQKFKDRFTISADTSKNTAYLQMNSLRAEDTAVYYCARGIYFYGTTYFDYWGQGTLVTVSS VL: DIQMTQSPSSLSASVGDRVTITCRASKTISKYLAWYQQKPGKAPKLLIYSGRSLQRGVPSRFSGSGSGTDFTLTISSLQPEDFATYYCQQHNEYPLTFGQGTKVEIK
a: 7.57

q: Name the recorded pIC50 of the binder listed here: MHM24 direct hypervariable region graft on the acceptor human consensus framework (Fab displayed on phage) (Fab, V domains shown) VH: EVQLVESGGGLVQPGGSLRLSCAASGYSFTGHWMNWVRQAPGKGLEWVGMIHPSDSETRLNQKFKDRFTISADTSKNTAYLQMNSLRAEDTAVYYCARGIYFYGTTYFDYWGQGTLVTVSS VL: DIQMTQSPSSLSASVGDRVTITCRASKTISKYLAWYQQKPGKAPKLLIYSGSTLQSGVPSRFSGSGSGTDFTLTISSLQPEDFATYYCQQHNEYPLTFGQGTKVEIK
a: 8.22
